systemTested: HCV NS3/4A protease complex, H77 strain (Hepatitis C virus genotype 1a, UniProt P27958, C1454S/C1711G)
Construct: DNA encoding the recombinant HCV NS3/4A protease complex (amino acids 1027 to 1711) for these strains; inferred from pET21b vector and Ni-NTA purification; made in house; host or cells: Escherichia coli BL21 (DE3), pET21b
Sequence (P27958 1027-1711 C1454S/C1711G, one chain of several): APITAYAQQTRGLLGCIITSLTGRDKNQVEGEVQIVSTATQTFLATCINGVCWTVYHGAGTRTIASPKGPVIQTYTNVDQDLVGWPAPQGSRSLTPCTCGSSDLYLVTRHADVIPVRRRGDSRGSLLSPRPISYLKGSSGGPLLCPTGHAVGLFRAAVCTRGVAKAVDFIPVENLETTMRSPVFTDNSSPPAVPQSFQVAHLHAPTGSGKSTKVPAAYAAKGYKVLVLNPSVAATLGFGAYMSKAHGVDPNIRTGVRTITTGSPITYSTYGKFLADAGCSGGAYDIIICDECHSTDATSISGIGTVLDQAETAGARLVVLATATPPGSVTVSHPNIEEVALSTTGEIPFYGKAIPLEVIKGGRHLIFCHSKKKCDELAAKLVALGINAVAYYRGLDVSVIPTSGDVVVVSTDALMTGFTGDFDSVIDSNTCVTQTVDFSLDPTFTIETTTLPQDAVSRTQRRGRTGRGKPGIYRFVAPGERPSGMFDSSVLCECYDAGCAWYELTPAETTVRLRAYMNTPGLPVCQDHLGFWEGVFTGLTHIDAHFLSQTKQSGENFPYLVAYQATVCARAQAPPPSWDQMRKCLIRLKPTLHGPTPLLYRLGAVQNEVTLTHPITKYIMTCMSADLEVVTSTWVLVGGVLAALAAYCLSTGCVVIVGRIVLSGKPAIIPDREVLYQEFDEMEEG
protocolDetails: FRET peptide assay to monitor HCV NS3/4A proteolytic activity, H77 strain
Type: biochemical, HCV genotype 1a
cond: H77 strain (1a genotype)
measuredAttribute: IC50 (nM)

{"columns": ["molecule", "measuredAttribute", "measured"],
 "data": [
  ["CC(C)(C)OC(=O)N[C@H]1CN(C2CC2)CCC/C=C\\C2C[C@@]2(C(=O)NS(=O)(=O)C2CC2)NC(=O)[C@@H]2C[C@@H](Oc3ccccn3)CN2C1=O (stereo partly shown) [Compound 1]", "IC50", 18]
]}

---

systemTested: HCV NS3/4A protease complex, J4L6S strain (Hepatitis C virus genotype 1b, UniProt O92972, C1454S/C1711G)
Construct: DNA encoding the recombinant HCV NS3/4A protease complex (amino acids 1027 to 1711) for these strains; inferred from pET21b vector and Ni-NTA purification
Sequence (O92972 1027-1711 C1454S/C1711G, one chain of several): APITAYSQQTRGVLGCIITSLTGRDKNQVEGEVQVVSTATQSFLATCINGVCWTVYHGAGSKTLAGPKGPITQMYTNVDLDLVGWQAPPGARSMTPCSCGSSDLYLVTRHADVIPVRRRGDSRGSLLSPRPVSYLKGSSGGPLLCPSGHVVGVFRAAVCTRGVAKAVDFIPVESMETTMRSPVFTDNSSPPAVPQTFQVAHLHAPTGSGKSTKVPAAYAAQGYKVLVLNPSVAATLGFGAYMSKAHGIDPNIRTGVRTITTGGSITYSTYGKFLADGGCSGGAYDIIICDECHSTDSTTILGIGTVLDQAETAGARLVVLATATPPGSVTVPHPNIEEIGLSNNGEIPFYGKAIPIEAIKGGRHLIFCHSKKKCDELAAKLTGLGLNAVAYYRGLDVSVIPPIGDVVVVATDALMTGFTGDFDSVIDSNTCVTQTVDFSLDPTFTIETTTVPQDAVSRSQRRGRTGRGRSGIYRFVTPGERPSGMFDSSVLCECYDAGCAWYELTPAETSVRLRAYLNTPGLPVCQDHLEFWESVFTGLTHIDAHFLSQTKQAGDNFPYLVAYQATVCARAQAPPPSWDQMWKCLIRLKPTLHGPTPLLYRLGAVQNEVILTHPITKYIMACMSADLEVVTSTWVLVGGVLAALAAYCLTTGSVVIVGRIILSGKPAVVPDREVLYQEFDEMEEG
protocolDetails: FRET peptide assay to monitor HCV NS3/4A proteolytic activity, J4L6S strain
cond: J4L6S strain (1b genotype)
measuredAttribute: IC50 (µM)

{"columns": ["compound", "measuredAttribute", "measured"],
 "data": [
  ["CC(C)(C)OC(=O)N[C@H]1CN(C2CC2)CCC/C=C\\C2C[C@@]2(C(=O)NS(=O)(=O)C2CC2)NC(=O)[C@@H]2C[C@@H](Oc3ccccn3)CN2C1=O (stereo partly shown) [Compound 1]", "IC50", 0.012]
]}
